Source listed as patent US10618903B2.

assay: Caco Permeability Assay; type: in vitro ADME; details: human, Caco-2, Caco-2 cells, 3 μM compound
# strict inequality: Papp at 2 h, 3 µM < 6 ×10⁻⁶ cm/s yields condition met, everything else yields condition not met

{"compound": "C[C@@H](CO)Nc1cc(-c2cnc3cc(Cl)cnn23)ncc1C(=O)NC[C@@H](F)C(C)(C)O [Example 181]", "answer label": "condition met"}
{"compound": "C[C@@H](CF)Nc1cc(-c2cnn3cc(Cl)cnc23)ncc1C(=O)NC[C@@H](F)C(C)(C)O [Example 32]", "answer label": "condition not met"}
{"compound": "CC(C)(O)[C@H](F)CNC(=O)c1cnc(-c2cnn3cc(Cl)cnc23)cc1NC1CCOCC1 [Example 30]", "answer label": "condition not met"}
{"compound": "COCCn1cc(Nc2cc(-c3cnn4cc(C#N)cnc34)ncc2C(=O)NC[C@@H](F)C(C)(C)O)cn1 [Example 243]", "answer label": "condition met"}
{"compound": "CC(C)(O)[C@H](F)CNC(=O)c1cnc(-c2cnn3cc(Cl)cnc23)cc1Nc1cnn(CC(F)F)c1 [Example 71]", "answer label": "condition met"}

Prompt: Please state whether Papp at 2 h, 3 µM is below 6 ×10⁻⁶ cm/s for CC(C)(O)[C@H](F)CNC(=O)c1cnc(-c2cnn3cc(C#N)cnc23)cc1NC1CCC(F)(F)C1O (stereo partly shown) [Example 107]
Completion: condition met

Prompt: Please state whether Papp at 2 h, 3 µM is below 6 ×10⁻⁶ cm/s for CNC(=O)c1ccc(Nc2cc(-c3cnn4cc(Cl)cnc34)ncc2C(=O)NC[C@@H](F)C(C)(C)O)cc1 [Example 34]
Completion: condition met
